Values compiled from patent EP3053944B1.

# measurement protocol: Solubility of polymerization initiators in polymerization solvents (visual observation)
# Format: physicochemical
# run conditions: summary in words of Table 8; THF or toluene, 20 wt.%

- compound: "C=CCN(CC=C)CCCCCCO [Ref 11]"
  dissolution in the solvent(s): "dissolved in a solvent"
- compound: "C[Si]1(C)CC[Si](C)(C)N1CCCCCCO [Initiator 12]"
  dissolution in the solvent(s): "dissolved in the solvent"
- compound: "CC[Si](CC)(CC)N(CCCCCCO)[Si](CC)(CC)CC [Initiator 10]"
  dissolution in the solvent(s): "dissolved in the solvent"
- compound: "CC[Si](CC)(CC)N(CCCOCCO)[Si](CC)(CC)CC [Initiator 1]"
  dissolution in the solvent(s): "dissolved in the solvent"
- compound: "CC(C)(C)[Si](C)(C)NCCCOCCO [Initiator 6]"
  dissolution in the solvent(s): "dissolved in the solvent"
- compound: "CC(C)(C)OC(=O)N(CCCOCCO)C(=O)OC(C)(C)C [Initiator 9]"
  dissolution in the solvent(s): "dissolved in a solvent"

---

# measurement protocol: Solubility of polymerization initiators in polymerization solvents (visual observation)
# Format: physicochemical
# Set-up: key: Toluene / solubility to polymerization solvents: THF: Excellent: In the case in which cloudiness was not observed at all in the solution by visual observation, the initiator was shown as "excellent"; Poor: in the case in which cloudiness was observed or the initiator did not dissolve at all, or in the case in which the initiator decomposed when the alkoxide was formed from the initiator, the initiator was shown as "poor"
# run conditions: initiator dissolved in THF at 20 wt.%, visual observation
endpoint name: solubility to polymerization solvents: THF

- compound: "CC(C)(C)[Si](C)(C)NCCCO [Comparative initiator 5, reference compound]"
  measured value: "Poor"
- compound: "O=C1c2ccccc2C(=O)N1CCCOCCOCCOCCO"
  measured value: "Excellent"
- compound: "CC[Si](CC)(CC)N(CCCOCCO)[Si](CC)(CC)CC"
  measured value: "Excellent"
- compound: "CC[Si](CC)(CC)N(CCCOCCOCCO)[Si](CC)(CC)CC"
  measured value: "Excellent"
- compound: "C=CCN(CC=C)CCCOCCO"
  measured value: "Excellent"
- compound: "OCCCN(Cc1ccccc1)Cc1ccccc1 [Comparative initiator 7, reference compound]"
  measured value: "Poor"
- compound: "OCCOCCOCCOCCCN(Cc1ccccc1)Cc1ccccc1"
  measured value: "Excellent"
- compound: "CC(C)(C)OC(=O)N(CCCOCCO)C(=O)OC(C)(C)C"
  measured value: "Excellent"

---

# measurement protocol: Solubility of polymerization initiators in polymerization solvents (visual observation)
# Assay type: physicochemical
# Design: key: Toluene / solubility to polymerization solvents: THF: Excellent: In the case in which cloudiness was not observed at all in the solution by visual observation, the initiator was shown as "excellent"; Poor: in the case in which cloudiness was observed or the initiator did not dissolve at all, or in the case in which the initiator decomposed when the alkoxide was formed from the initiator, the initiator was shown as "poor"
# run conditions: initiator dissolved in toluene at 20 wt.%, visual observation
# Description: Results of solubility of the initiators 1-2, 6-7, 9-10 and 12, reference initiators 3-5, 8 and 11, and comparative initiators 1 to 8 to polymerization solvents are shown below. THF in each of the products of the initiators 1-2, 6-7, 9-10 and 12, reference initiators 3-5, 8 and 11, and the comparative initiators 1 to 8 synthesized above was distilled away under reduced pressure to extract the polymerization initiators. […]
endpoint name: solubility to polymerization solvents: Toluene

- compound: "C=CCN(CC=C)CCCO [Comparative initiator 3, reference compound]"
  measured value: "Poor"
- compound: "C[Si](C)(C)N(CCCO)[Si](C)(C)C [Comparative initiator 2, reference compound]"
  measured value: "Poor"
- compound: "CC(C)(C)OC(=O)N(CCCO)C(=O)OC(C)(C)C [Comparative initiator 8, reference compound]"
  measured value: "Poor"
- compound: "C[Si]1(C)CC[Si](C)(C)N1CCCCCCO"
  measured value: "Excellent"
- compound: "C[Si]1(C)CC[Si](C)(C)N1CCCO [Comparative initiator 6, reference compound]"
  measured value: "Poor"
- compound: "CC[Si](CC)(CC)N(CCCO)[Si](CC)(CC)CC [Comparative initiator 1, reference compound]"
  measured value: "Poor"
- compound: "CC(C)(C)[Si](C)(C)NCCCO [Comparative initiator 5, reference compound]"
  measured value: "Poor"
- compound: "OCCCN(Cc1ccccc1)Cc1ccccc1 [Comparative initiator 7, reference compound]"
  measured value: "Poor"
- compound: "O=C1c2ccccc2C(=O)N1CCCO [Comparative initiator 4, reference compound]"
  measured value: "Poor"
- compound: "CC[Si](CC)(CC)N(CCCCCCO)[Si](CC)(CC)CC"
  measured value: "Excellent"
- compound: "C=CCN(CC=C)CCCCCCO"
  measured value: "Excellent"

---

# measurement protocol: Solubility of polymerization initiators in polymerization solvents (visual observation)
# Format: physicochemical
# run conditions: summary in words of Table 8; THF or toluene, 20 wt.%

- compound: "O=C1c2ccccc2C(=O)N1CCCOCCOCCOCCO [Ref 5]"
  dissolution in the solvent(s): "dissolved in a solvent"
- compound: "OCCOCCOCCOCCCN(Cc1ccccc1)Cc1ccccc1 [Ref 8]"
  dissolution in the solvent(s): "dissolved in a solvent"
- compound: "CC[Si](CC)(CC)N(CCCOCCOCCO)[Si](CC)(CC)CC [Initiator 2]"
  dissolution in the solvent(s): "dissolved in the solvent"
- compound: "C[Si]1(C)CC[Si](C)(C)N1CCCOCCO [Initiator 7]"
  dissolution in the solvent(s): "dissolved in the solvent"
- compound: "C=CCN(CC=C)CCCOCCOCCO [Ref 4]"
  dissolution in the solvent(s): "dissolved in a solvent"
- compound: "C=CCN(CC=C)CCCOCCO [Ref 3]"
  dissolution in the solvent(s): "dissolved in a solvent"

---

# measurement protocol: Solubility of polymerization initiators in polymerization solvents (visual observation)
# Assay type: physicochemical
# Set-up: key: Toluene / solubility to polymerization solvents: THF: Excellent: In the case in which cloudiness was not observed at all in the solution by visual observation, the initiator was shown as "excellent"; Poor: in the case in which cloudiness was observed or the initiator did not dissolve at all, or in the case in which the initiator decomposed when the alkoxide was formed from the initiator, the initiator was shown as "poor"
# run conditions: initiator dissolved in THF at 20 wt.%, visual observation
endpoint name: solubility to polymerization solvents: THF

- compound: "O=C1c2ccccc2C(=O)N1CCCO [Comparative initiator 4, reference compound]"
  measured value: "Poor"
- compound: "CC[Si](CC)(CC)N(CCCO)[Si](CC)(CC)CC [Comparative initiator 1, reference compound]"
  measured value: "Poor"
- compound: "C=CCN(CC=C)CCCO [Comparative initiator 3, reference compound]"
  measured value: "Poor"
- compound: "C[Si]1(C)CC[Si](C)(C)N1CCCOCCO"
  measured value: "Excellent"
- compound: "C[Si](C)(C)N(CCCO)[Si](C)(C)C [Comparative initiator 2, reference compound]"
  measured value: "Poor"
- compound: "C=CCN(CC=C)CCCOCCOCCO"
  measured value: "Excellent"
- compound: "CC(C)(C)[Si](C)(C)NCCCOCCO"
  measured value: "Excellent"
- compound: "C[Si]1(C)CC[Si](C)(C)N1CCCO [Comparative initiator 6, reference compound]"
  measured value: "Poor"
- compound: "CC(C)(C)OC(=O)N(CCCO)C(=O)OC(C)(C)C [Comparative initiator 8, reference compound]"
  measured value: "Poor"
